Origin of the recorded values: ChEMBL document CHEMBL5291721

As a worked illustration, we turn to AC50 data collected for Gamma-aminobutyric acid receptor subunit alpha-1 (Rattus norvegicus).

compound	AC50
COc1ccc(Cc2nccc3cc(OC)c(OC)cc23)cc1OC	> 30 µM
CN(C)c1cc(CNCC(C)(C)C)c(O)c2c1C[C@H]1C[C@H]3[C@H](N(C)C)C(O)=C(C(N)=O)C(=O)[C@@]3(O)C(O)=C1C2=O	> 30 µM
CNCCCC1c2ccccc2C=Cc2ccccc21	> 10 µM
CC(C)(C)NC[C@H](O)COc1nsnc1N1CCOCC1	> 30 µM
C[C@H]1C[C@H]2[C@@H]3CCC4=CC(=O)C=C[C@]4(C)[C@@]3(Cl)[C@@H](O)C[C@]2(C)[C@@]1(O)C(=O)CO	> 10 µM
COC1=C(OC)C(=O)C(CCCCCCCCCCO)=C(C)C1=O	> 10 µM
C[C@]1(COc2ccc(N3CCC(Oc4ccc(OC(F)(F)F)cc4)CC3)cc2)Cn2cc([N+](=O)[O-])nc2O1	> 10 µM
Nc1ccn([C@@H]2O[C@H](CO)[C@@H](O)C2(F)F)c(=O)n1	> 10 µM
CCC(C)(Oc1ccc(C2(c3ccc(OC(C)(CC)C(=O)O)cc3)CCCCC2)cc1)C(=O)O (configuration not stated) [CLINOFIBRATE]	> 30 µM
COC(=O)N[C@@H](C)CNc1nccc(-c2cn(C(C)C)nc2-c2cc(Cl)cc(NS(C)(=O)=O)c2F)n1	> 30 µM
NS(=O)(=O)c1cc2c(cc1C(F)(F)F)NC(Cc1ccccc1)NS2(=O)=O (configuration not stated) [BENDROFLUMETHIAZIDE]	> 10 µM
CN1CCN(CCCN2c3ccccc3Sc3ccc(S(=O)(=O)N(C)C)cc32)CC1	> 30 µM
N=C(N)c1ccc2cc(OC(=O)c3ccc(N=C(N)N)cc3)ccc2c1	3.5 µM
CN1c2ccccc2C(NCCCCCCC(=O)O)c2ccc(Cl)cc2S1(=O)=O (configuration not stated)	> 30 µM
CCn1cc(C(=O)O)c(=O)c2cc(F)c(N3CCN(C)CC3)cc21	> 30 µM
CNCC[C@H](Oc1cccc2ccccc12)c1cccs1	> 10 µM
CC(=O)OCC[N+](C)(C)C	> 10 µM

---

tested.target: Motilin receptor (Homo sapiens, UniProt O43193); further: assay procedure not described here
Sequence (O43193 whole entry): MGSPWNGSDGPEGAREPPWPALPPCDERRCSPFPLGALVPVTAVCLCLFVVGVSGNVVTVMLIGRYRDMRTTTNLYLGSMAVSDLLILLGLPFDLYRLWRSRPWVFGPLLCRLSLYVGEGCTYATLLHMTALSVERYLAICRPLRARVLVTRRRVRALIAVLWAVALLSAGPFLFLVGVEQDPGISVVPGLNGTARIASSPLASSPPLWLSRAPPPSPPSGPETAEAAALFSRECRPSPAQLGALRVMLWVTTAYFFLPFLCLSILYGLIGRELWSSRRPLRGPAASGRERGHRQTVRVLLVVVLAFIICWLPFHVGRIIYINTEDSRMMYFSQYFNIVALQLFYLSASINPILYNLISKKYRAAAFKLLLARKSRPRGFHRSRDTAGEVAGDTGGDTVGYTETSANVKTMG
// values below are reported AC50

compound	AC50
CC[C@H]1OC(=O)[C@H](C)[C@@H](O[C@H]2C[C@@](C)(OC)[C@@H](O)[C@H](C)O2)[C@H](C)[C@@H](O[C@@H]2O[C@H](C)C[C@H](N(C)C)[C@H]2O)[C@](C)(O)C[C@@H](C)/C(=N\OCOCCOC)[C@H](C)[C@@H](O)[C@]1(C)O [ROXITHROMYCIN]	9 µM
CC(=O)O[C@H]1C[C@@H]2CC[C@@H]3[C@H](CC[C@@]4(C)[C@H]3C[C@H]([N+]3(C)CCCCC3)[C@@H]4OC(C)=O)[C@@]2(C)C[C@@H]1[N+]1(C)CCCCC1 [PANCURONIUM]	> 10 µM
CC(C)OC(=O)C(C(=O)OC(C)C)=C1SC=CS1 [MALOTILATE]	> 30 µM
O=C(O)CSCC(=O)NC1CCSC1=O (stereo unspecified) [ERDOSTEINE]	> 30 µM
Nc1ccn([C@@H]2O[C@H](CO)[C@@H](O)C2(F)F)c(=O)n1 [GEMCITABINE]	> 10 µM
CC(=O)Nc1c(I)c(C(=O)N[C@H]2C(O)O[C@H](CO)[C@@H](O)[C@@H]2O)c(I)c(N(C)C(C)=O)c1I (stereo partly specified) [METRIZAMIDE]	> 10 µM
COc1ccc(C(CN(C)C)C2(O)CCCCC2)cc1 (stereo unspecified) [VENLAFAXINE]	> 10 µM
CC1(C)C(/C=C/C=C/C=C/C=C2\N(CCCCS(=O)(=O)O)c3ccc4ccccc4c3C2(C)C)=[N+](CCCCS(=O)(=O)[O-])c2ccc3ccccc3c21 [INDOCYANINE GREEN ACID FORM]	23 µM
N#Cc1ccccc1-c1cc(-c2ccccn2)cn(-c2ccccc2)c1=O	> 30 µM
CNC[C@H](O)c1cccc(O)c1 [PHENYLEPHRINE]	> 10 µM
C#C[C@]1(O)CC[C@H]2[C@@H]3CCC4=CC(=O)CCC4=C3C=C[C@@]21CC [GESTRINONE]	> 30 µM
Cc1ccc(=O)n(-c2ccccc2)c1 [PIRFENIDONE]	> 30 µM
NS(=O)(=O)c1cc2c(cc1C(F)(F)F)NC(Cc1ccccc1)NS2(=O)=O (stereo unspecified) [BENDROFLUMETHIAZIDE]	> 10 µM
COc1ccc(Cc2nccc3cc(OC)c(OC)cc23)cc1OC [PAPAVERINE]	> 30 µM
CC(C)(C)NCC(O)c1cc(Cl)c(N)c(Cl)c1 (stereo unspecified) [CLENBUTEROL]	> 30 µM
O=C(CCCN1CCC2(CC1)C(=O)NCN2c1ccccc1)c1ccc(F)cc1 [SPIPERONE]	> 30 µM
